Collected pEC50 values appear next to each entry.
Target: UniProt:Q95V25
pEC50: −log10 of the molar value.
OUTCOME MEASURE: pEC50

Cc1nn2c(C(C)C)c(C(=O)N[C@H]3CCOc4ccccc43)sc2c1-c1c(Cl)cccc1Cl	> 8.50
Cc1nn2c(C(C)C)c(C(=O)N[C@H]3CCOc4ccccc43)sc2c1-c1cccc(N(C)C)c1F	> 8.50
Cc1nn2c(C(C)C)c(C(=O)N[C@H]3CCOc4ccccc43)sc2c1-c1cccc(OC(F)(F)F)c1F	> 8.50
Cc1nn2c(C(C)C)c(C(=O)N[C@H]3CCOc4ccccc43)sc2c1-c1cc(Cl)cc(Cl)c1	7.50 to 8.50

* * *

Lab note: EC50 readings collected with C. elegans Slo-1a (Caenorhabditis elegans) for the following molecules.
Sequence (Q95V25 whole entry): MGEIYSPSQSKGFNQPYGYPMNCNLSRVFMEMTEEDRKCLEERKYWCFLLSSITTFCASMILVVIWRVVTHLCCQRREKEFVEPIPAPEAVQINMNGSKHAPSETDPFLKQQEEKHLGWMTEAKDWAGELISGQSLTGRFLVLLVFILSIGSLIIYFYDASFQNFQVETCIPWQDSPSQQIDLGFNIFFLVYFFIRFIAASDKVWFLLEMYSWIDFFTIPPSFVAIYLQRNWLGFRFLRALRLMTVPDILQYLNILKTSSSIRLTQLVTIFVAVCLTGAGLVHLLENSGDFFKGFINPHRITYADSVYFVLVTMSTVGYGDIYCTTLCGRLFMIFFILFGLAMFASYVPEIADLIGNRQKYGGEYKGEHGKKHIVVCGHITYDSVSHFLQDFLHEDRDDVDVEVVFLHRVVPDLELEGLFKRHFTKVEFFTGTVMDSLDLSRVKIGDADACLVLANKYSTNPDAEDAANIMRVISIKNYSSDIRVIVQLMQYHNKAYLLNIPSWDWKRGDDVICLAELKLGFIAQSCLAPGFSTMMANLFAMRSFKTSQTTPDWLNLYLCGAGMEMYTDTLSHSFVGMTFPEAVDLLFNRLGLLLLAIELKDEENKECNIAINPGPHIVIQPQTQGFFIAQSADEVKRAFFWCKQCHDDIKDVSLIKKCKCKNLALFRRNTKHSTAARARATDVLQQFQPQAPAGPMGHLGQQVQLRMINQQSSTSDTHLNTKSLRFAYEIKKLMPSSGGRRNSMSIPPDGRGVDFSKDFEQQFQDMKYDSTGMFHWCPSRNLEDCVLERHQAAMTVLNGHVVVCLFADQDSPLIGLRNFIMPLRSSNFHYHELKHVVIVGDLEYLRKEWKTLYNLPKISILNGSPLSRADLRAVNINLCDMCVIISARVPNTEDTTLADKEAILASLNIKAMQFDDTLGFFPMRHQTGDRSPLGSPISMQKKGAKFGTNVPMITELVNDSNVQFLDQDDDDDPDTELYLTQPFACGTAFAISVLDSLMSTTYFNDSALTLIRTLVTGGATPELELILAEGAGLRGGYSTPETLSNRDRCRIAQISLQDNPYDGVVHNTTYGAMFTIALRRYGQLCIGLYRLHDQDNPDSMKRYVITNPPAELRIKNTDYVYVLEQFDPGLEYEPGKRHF
OUTCOME MEASURE: EC50

Cc1nn2c(C(C)C)c(C(=O)N[C@H]3CCOc4ccccc43)sc2c1-c1cc(Cl)c(F)c(Cl)c1 [Example 5]	< 3.16 nM
Cc1nn2c(C(C)C)c(C(=O)N[C@H]3CCOc4ccccc43)sc2c1-c1cccc(Cl)c1Cl [Example 2]	< 3.16 nM
Cc1nn2c(C(C)C)c(C(=O)N[C@H]3CCOc4ccccc43)sc2c1-c1cccc(C(F)(F)F)c1Cl [Example 11]	< 3.16 nM
Cc1nn2c(C(C)C)c(C(=O)N[C@H]3CCOc4ccccc43)sc2c1-c1ccc(F)c(F)c1F [Example 9]	3.16 to 31.6 nM
Cc1nn2c(C(C)C)c(C(=O)N[C@H]3CCOc4ccccc43)sc2c1-c1ccc(Cl)c(Cl)c1 [Example 7]	3.16 to 31.6 nM
Cc1nn2c(C(C)C)c(C(=O)N[C@H]3CCOc4ccccc43)sc2c1-c1cccc(C(F)(F)F)c1F [Example 3]	< 3.16 nM
Cc1nn2c(C(C)C)c(C(=O)N[C@H]3CCOc4ccccc43)sc2c1-c1ccc(F)c(N(C)C)c1F [Example 6]	< 3.16 nM
Cc1nn2c(C(C)C)c(C(=O)N[C@H]3CCc4ccccc43)sc2c1-c1cc(Cl)c(F)c(Cl)c1 [Example 14]	3.16 to 31.6 nM
Cc1nn2c(C(C)C)c(C(=O)N[C@H]3CCOc4ccccc43)sc2c1-c1cc(Cl)cc(Cl)c1Cl [Example 12]	< 3.16 nM
Cc1nn2c(C(C)C)c(C(=O)N[C@H]3CCOc4ccccc43)sc2c1-c1ccc(F)c(F)c1 [Example 8]	3.16 to 31.6 nM
Cc1nn2c(C(C)C)c(C(=O)N[C@H]3CCc4ccccc43)sc2c1-c1cccc(Cl)c1Cl [Example 15]	< 3.16 nM

All figures here come from patent US11130768B2.
